The reader will find log10(EC50) measurements below, all made with Peroxisome proliferator-activated receptor alpha (Homo sapiens, UniProt Q07869).
Sequence (Q07869 whole entry): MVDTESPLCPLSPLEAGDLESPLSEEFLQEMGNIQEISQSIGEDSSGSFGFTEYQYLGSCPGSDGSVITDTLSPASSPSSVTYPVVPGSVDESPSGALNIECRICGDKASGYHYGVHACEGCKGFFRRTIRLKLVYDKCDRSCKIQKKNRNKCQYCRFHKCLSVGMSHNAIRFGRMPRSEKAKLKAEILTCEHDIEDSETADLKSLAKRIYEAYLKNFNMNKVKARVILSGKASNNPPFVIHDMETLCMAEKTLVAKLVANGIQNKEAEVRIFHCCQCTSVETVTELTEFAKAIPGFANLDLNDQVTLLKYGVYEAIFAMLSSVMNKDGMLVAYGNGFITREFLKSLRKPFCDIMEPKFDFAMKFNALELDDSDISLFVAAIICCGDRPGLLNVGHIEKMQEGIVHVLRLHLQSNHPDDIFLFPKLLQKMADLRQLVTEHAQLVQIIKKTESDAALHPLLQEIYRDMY
The base-10 logarithm of EC50, taken with EC50 in nM, is what appears here.

In the examples that follow, each entry is paired with its recorded log10(EC50).
INSERT INTO measurements (query_smiles, reported_value) VALUES
  ('CCO[C@@H](Cc1ccc(OCCc2nc(-c3ccccc3)oc2C)c2ccccc12)C(=O)O', 1.04),
  ('CCO[C@@H](Cc1ccc(OCCc2nc(-c3ccc(C(F)(F)F)cc3)oc2C)c2ccsc12)C(=O)O', 1.95),
  ('Cc1oc(-c2ccc(C(C)C)cc2)nc1CCOc1ccc(C[C@H](OCC2CC2)C(=O)O)c2sccc12', 1.20),
  ('CC(C)(Oc1ccc(C(=O)c2ccc(Cl)cc2)cc1)C(=O)O', 4.84),
  ('CCO[C@@H](Cc1ccc(OCCc2nc(-c3ccc(C(F)(F)F)cc3)oc2C)c2ccccc12)C(=O)O', 1.04),
  ('CC(=O)c1ccccc1N[C@@H](Cc1ccc(OCCc2nc(-c3ccccc3)oc2C)cc1)C(=O)O', 2.45),
  ('Cc1oc(-c2ccccc2)nc1CCOc1ccc(C[C@H](OCC2CC2)C(=O)O)c2sccc12', 1.43),
  ('CCO[C@@H](Cc1ccc(OCCc2nc(-c3ccc(-c4ccccc4)cc3)oc2C)c2ccsc12)C(=O)O', 2.22);

Consider the additional compound presented here.
In: Give the observed log10(EC50) of CO[C@@H](Cc1ccc(OCCc2nc(-c3ccccc3)oc2C)c2sccc12)C(=O)O for Peroxisome proliferator-activated receptor alpha (Homo sapiens, UniProt Q07869).
Out: 2.20

* * *

test: Total clearance in cynomolgus monkey; format: ADME, organism-based, Macaca fascicularis; details: in vivo
MEASURED_PROPERTY: clearance (mL/min/kg)
Give your result in mL/min/kg as a bare value.

In: Tell us which clearance value is on record for CO[C@@H](Cc1ccc(OCCc2nc(-c3ccccc3)oc2C)c2ccsc12)C(=O)O
Out: 1.6

* * *

biological target: Peroxisome proliferator-activated receptor alpha (Homo sapiens, UniProt Q07869)
pEC50: −log10 of the molar value.
Please note: true applies when pEC50 is 7 or greater, and false applies otherwise.

INSERT INTO assay_data (compound, assigned_category) VALUES
  ('Cc1oc(-c2ccc(-c3ccccc3)cc2)nc1CCOc1ccc(C[C@H](OCC(F)(F)F)C(=O)O)c2ccccc12', 'false'),
  ('Cc1oc(-c2ccccc2)nc1CCOc1ccc(CC(OCC(C)C)C(=O)O)c2sccc12 (racemic)', 'true'),
  ('CCO[C@@H](Cc1ccc(OCCc2nc(-c3ccccc3)oc2C)c2sccc12)C(=O)O', 'true'),
  ('CO[C@@H](Cc1ccc(OCCc2nc(-c3ccc(C(F)(F)F)cc3)oc2C)c2ccsc12)C(=O)O', 'true');

In: Is it the case that CCCCCCOC(Cc1ccc(OCCc2nc(-c3ccccc3)oc2C)c2ccsc12)C(=O)O (racemic) has pEC50 reaching or exceeding 7?
Out: false

In: Is it the case that CO[C@@H](Cc1ccc(OCCc2nc(-c3ccc(C(C)C)cc3)oc2C)c2ccsc12)C(=O)O has pEC50 reaching or exceeding 7?
Out: true

In: Is it the case that Cc1oc(-c2ccccc2)nc1CCOc1ccc(C[C@H](OCC(F)(F)F)C(=O)O)c2sccc12 has pEC50 reaching or exceeding 7?
Out: false
